Value source: PubChem BioAssay (NCI)

System: COLO 205 colon
ASSAY_COMMENT: NCI-60 one-dose screen, 48 h (100 = growth as untreated, 0 = no growth, -100 = all killed)
RECORDED_CONDITIONS: 10 µM unless noted
About 83,000 compounds went through this panel and 20% of them were active in at least one assay; those are over-represented in the sample as a whole.
Here, each record is paired with measured growth data.
RESULT_TYPE: growth (%)

INSERT INTO assay_data (molecule, result_type, observed) VALUES
  ('CC(C)(O)CC(=O)NCCn1ccc2ncnc(Nc3ccc(Oc4cccc(C(F)(F)F)c4)c(Cl)c3)c21', 'growth', -67.4),
  ('Nc1ncnc2c1ccn2-c1cccc(NC(=O)c2ccc(N3CCOCC3)c(C(F)(F)F)c2)c1', 'growth', 49),
  ('CC(C)C1CCC(C)C(C2(C#N)C(N)=NC(N)=C2C#N)C1=O (centres undefined)', 'growth', 100),
  ('COc1cc2ncnc(Nc3ccc(F)c(Cl)c3)c2cc1NC(=O)/C=C/CN1CCCCC1', 'growth', -76.6),
  ('Cc1nn(-c2nc3ccccc3[nH]2)c2c1C(c1ccc(O)cc1)CC(=O)N2 (centres undefined)', 'growth', 103),
  ('N#CC1(C#N)C(c2cccs2)NC(c2cccs2)C1(C#N)C#N (centres undefined)', 'growth', 106),
  ('Cc1ccc(N=C2CSc3nnc(-c4csc5c4CCCC5)n3N2)cc1', 'growth', -4.99),
  ('Cn1c(Nc2ccc(C(F)(F)F)cc2)nc2cc(Oc3ccnc(-c4ncc(C(F)(F)F)[nH]4)c3)ccc21', 'growth', 22.9),
  ('Clc1nc(Cl)c2ncn(CC#CCn3cnc4c(Cl)nc(Cl)nc43)c2n1', 'growth', -26.9),
  ('CC(=O)C1CC(C)CCC1C(C)C (centres undefined)', 'growth', 122),
  ('CCn1c(-c2nonc2N)nc2c(C#CC(C)(C)O)ncc(OC[C@H]3CCCNC3)c21', 'growth', 38.2),
  ('COc1ccc(F)c(F)c1C(=O)c1cnc(NC2CCN(S(C)(=O)=O)CC2)nc1N', 'growth', -79.7),
  ('CCCCn1c(C)nc2cc(Nc3nc(N4CCCCC4)nc4nc[nH]c34)ccc21', 'growth', 28.9),
  ('CCCCCCCCCNCCCCCCCCC', 'growth', -92.8),
  ('CC1(O)CCC(Nc2cc(-c3ccc(C(F)(F)F)cc3)c(C#N)c3nc4ccccc4n23)CC1 (centres undefined)', 'growth', 61),
  ('CC(C)[C@@H]1CC[C@]2(CO2)[C@@H]2C(=O)OCC(C(=O)O)=C[C@H]21', 'growth', 1.78),
  ('O=C(CNc1nc2ccccc2s1)Nc1ccc(-c2nc3ccccc3s2)cc1', 'growth', 112),
  ('O=C(CNc1nnc(-c2ccc(Cl)cc2)o1)Nc1ccc(-c2nc3ccccc3s2)cc1', 'growth', 104),
  ('COC(=O)[C@H](Cc1ccc(O)cc1)NC(=O)[C@@H](OC)[C@@H]1Cc2cc3cc(OC4CC(OC5CC(O)C(O)C(C)O5)C(O)C(C)O4)c(C)c(O)c3c(O)c2C(=O)[C@H]1OC1CC(OC2CC(OC3CC(C)(O)C(O)C(C)O3)C(O)C(C)O2)C(O)C(C)O1 (some centres undefined)', 'growth', -22.8);
